Data origin, for the record: patent US20190175526A1

Molecular target: PRMT5 (Homo sapiens)
Sequence (O14744 2-637 limits assumed): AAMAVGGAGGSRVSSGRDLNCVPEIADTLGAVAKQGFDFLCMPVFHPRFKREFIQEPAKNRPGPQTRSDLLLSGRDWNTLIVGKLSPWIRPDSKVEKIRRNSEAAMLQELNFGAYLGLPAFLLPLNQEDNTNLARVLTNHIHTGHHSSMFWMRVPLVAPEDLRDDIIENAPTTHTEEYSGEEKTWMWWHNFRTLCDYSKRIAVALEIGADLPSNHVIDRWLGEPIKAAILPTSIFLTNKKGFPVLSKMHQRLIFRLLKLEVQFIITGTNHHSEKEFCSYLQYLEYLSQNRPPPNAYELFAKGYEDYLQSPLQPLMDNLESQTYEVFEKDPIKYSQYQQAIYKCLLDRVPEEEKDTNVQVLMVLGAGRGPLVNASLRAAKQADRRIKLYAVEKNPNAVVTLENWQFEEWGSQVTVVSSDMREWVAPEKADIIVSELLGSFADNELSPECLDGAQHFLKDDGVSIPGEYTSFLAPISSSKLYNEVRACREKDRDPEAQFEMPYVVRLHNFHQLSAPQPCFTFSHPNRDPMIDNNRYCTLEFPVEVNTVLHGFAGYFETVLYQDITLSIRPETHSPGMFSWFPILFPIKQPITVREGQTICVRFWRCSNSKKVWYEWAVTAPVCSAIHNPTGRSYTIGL
Sequence (Q9BQA1 2-342 partner limits assumed): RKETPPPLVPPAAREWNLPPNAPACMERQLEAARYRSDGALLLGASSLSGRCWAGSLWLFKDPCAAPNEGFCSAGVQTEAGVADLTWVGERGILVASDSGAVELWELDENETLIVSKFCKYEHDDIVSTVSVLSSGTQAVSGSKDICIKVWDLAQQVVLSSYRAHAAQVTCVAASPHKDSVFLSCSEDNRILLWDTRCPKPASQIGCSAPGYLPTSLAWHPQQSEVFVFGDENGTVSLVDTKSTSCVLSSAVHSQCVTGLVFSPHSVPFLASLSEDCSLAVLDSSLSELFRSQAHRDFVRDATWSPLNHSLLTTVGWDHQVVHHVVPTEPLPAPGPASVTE
Reported endpoint: IC50 (µM)

chemical_string=O=C1c2ccccc2C(=O)c2c(NCCCN(CCO)CCO)cccc21 reading_unit=µM recorded_measurement=63.2
